- Experimental Target: Serine/threonine-protein kinase ATR (Homo sapiens, UniProt Q13535)
- Assay Explanation: Inhibition of ATR (unknown origin) assessed as remaining activity at 1 uM in presence of [gamma33P-ATP] by radiometric assay
I'd be grateful if you could share measured Activity for these entries.
Don't forget the unit after the value.

May I ask what Activity has been recorded for CN(C)CCCOc1ccc(-c2ccc3ncc(N(C)C(=O)NC(C)(C)C)nc3c2)cn1 ?
98%

May I ask what Activity has been recorded for CN(C)CCCOc1ccc(-c2ccc3ncc(NC(=O)NC4CCCCC4)nc3c2)cn1 ?
102%

May I ask what Activity has been recorded for CN(C)CCCOc1ccc(-c2ccc3ncc(N(C)C(=O)Nc4cccc(C(F)(F)F)c4)nc3c2)cn1 ?
109%

May I ask what Activity has been recorded for CN(C)CCCOc1ccc(-c2ccc3ncc(NC(=O)NC(C)(C)C)nc3c2)cn1 ?
94%

May I ask what Activity has been recorded for CC1CCC(NC(=O)N(C)c2cnc3ccc(-c4ccc(OCCCN(C)C)nc4)cc3n2)CC1 (centres undefined) ?
94%

May I ask what Activity has been recorded for CN(C)CCCOc1ccc(-c2ccc3ncc(N(C)C(=O)NC4CCCCC4)nc3c2)cn1 ?
94%

May I ask what Activity has been recorded for CC(C)NC(=O)N(C)c1cnc2ccc(-c3ccc(OCCCN(C)C)nc3)cc2n1 ?
105%

May I ask what Activity has been recorded for C=CCNC(=O)Nc1cnc2ccc(-c3ccc(OCCCN(C)C)nc3)cc2n1 ?
101%

May I ask what Activity has been recorded for CCCNC(=O)N(C)c1cnc2ccc(-c3ccc(OCCCN(C)C)nc3)cc2n1 ?
102%

* * *

- Experimental Target: Serine-protein kinase ATM (Homo sapiens, UniProt Q13315)
- Sequence (Q13315 whole entry): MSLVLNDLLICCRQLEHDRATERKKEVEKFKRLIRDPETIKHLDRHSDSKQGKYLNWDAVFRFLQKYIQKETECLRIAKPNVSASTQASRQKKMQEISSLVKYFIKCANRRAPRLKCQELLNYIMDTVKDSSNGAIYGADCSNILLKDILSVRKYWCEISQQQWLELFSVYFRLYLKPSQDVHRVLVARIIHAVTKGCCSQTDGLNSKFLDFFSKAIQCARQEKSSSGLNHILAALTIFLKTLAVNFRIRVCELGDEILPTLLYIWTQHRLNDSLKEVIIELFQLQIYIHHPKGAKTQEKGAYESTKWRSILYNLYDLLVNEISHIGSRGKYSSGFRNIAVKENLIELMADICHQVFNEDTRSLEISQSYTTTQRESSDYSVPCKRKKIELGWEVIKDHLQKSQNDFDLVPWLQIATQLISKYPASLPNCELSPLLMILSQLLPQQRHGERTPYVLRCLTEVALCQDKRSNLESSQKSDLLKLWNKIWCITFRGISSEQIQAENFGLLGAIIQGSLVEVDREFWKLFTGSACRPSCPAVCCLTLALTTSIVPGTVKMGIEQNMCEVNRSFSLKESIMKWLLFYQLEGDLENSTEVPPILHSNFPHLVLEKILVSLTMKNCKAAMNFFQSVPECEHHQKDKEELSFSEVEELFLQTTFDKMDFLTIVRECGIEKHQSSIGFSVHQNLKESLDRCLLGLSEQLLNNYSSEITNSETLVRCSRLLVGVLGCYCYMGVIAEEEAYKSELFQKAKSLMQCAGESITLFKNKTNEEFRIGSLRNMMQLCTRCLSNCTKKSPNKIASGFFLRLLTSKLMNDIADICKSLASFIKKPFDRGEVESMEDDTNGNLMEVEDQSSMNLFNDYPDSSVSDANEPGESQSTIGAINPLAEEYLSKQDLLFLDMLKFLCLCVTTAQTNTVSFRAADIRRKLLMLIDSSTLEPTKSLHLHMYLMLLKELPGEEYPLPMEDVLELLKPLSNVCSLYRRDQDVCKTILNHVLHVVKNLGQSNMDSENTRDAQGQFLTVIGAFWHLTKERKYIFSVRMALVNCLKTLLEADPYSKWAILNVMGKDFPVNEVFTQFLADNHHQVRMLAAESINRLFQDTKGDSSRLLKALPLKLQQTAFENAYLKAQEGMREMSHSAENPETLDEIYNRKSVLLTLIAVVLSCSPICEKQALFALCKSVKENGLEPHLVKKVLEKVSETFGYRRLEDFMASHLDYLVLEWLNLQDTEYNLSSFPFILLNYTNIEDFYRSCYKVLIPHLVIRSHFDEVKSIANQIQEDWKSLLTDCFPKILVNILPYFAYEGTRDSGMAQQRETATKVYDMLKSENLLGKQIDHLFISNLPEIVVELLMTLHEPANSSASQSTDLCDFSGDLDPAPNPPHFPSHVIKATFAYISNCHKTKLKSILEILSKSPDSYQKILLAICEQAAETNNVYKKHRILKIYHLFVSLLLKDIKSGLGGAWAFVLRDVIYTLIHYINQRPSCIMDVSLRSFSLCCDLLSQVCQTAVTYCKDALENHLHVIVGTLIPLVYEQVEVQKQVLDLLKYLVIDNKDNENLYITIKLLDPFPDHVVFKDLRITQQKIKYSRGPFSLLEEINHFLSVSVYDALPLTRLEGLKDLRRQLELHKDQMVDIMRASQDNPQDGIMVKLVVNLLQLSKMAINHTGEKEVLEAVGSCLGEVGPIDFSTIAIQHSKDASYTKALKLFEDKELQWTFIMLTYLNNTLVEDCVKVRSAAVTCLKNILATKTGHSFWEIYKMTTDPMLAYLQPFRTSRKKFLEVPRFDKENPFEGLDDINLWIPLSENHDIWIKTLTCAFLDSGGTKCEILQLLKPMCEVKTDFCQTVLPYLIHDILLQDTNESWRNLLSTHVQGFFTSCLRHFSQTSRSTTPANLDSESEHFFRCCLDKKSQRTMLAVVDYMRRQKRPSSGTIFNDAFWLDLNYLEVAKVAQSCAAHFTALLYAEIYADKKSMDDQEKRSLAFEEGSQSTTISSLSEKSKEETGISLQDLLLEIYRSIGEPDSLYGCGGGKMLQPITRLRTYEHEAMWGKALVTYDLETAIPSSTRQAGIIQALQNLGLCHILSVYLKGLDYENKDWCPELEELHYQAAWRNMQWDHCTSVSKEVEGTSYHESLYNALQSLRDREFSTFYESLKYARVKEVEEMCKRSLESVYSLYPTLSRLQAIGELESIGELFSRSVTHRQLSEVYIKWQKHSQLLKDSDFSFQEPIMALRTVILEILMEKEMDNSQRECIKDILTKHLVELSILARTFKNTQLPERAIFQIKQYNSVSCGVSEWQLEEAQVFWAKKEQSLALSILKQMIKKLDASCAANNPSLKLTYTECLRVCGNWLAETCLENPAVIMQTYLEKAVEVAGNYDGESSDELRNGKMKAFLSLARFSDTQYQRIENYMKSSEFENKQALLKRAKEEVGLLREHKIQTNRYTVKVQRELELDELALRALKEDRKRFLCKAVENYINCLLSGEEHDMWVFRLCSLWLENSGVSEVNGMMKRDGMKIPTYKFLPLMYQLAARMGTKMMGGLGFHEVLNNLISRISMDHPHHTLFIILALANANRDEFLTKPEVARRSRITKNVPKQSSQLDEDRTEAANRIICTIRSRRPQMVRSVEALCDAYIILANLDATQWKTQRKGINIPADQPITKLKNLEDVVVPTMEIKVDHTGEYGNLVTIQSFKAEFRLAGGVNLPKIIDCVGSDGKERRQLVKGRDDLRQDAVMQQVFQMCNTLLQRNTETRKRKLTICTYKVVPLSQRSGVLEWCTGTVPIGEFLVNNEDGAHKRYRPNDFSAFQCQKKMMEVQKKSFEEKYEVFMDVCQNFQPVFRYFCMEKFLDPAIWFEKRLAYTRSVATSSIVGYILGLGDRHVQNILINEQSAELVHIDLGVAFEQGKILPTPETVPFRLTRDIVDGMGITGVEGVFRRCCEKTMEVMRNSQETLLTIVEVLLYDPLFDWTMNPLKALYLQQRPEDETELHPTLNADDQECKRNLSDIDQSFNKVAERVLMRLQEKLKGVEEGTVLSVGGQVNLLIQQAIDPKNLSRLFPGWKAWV
- Assay Explanation: Inhibition of ATM (unknown origin) assessed as remaining activity at 1 uM preincubated with compound for 30 mins followed by substrate addition and measured after 2 hrs by HTRF method relative to control
- Conditions Used: time 2.5 hrs
I'd be grateful if you could share measured Activity for these entries.
Respond numerically; units are % and should not be typed.

Request body: readout Activity, system Serine-protein kinase ATM (Homo sapiens, UniProt Q13315), query CC(C)NC(=O)N(C)c1cnc2ccc(-c3ccc(OC4CCN(C)CC4)nc3)cc2n1 . Return the value.
25

Request body: readout Activity, system Serine-protein kinase ATM (Homo sapiens, UniProt Q13315), query CC(C)NC(=O)N(C)c1cnc2ccc(-c3ccnc(OCCCN4CCCCC4)c3)cc2n1 . Return the value.
10

Request body: readout Activity, system Serine-protein kinase ATM (Homo sapiens, UniProt Q13315), query CC(C)NC(=O)N(C)c1cnc2ccc(-c3ccc(OCCN4CCCC4)nc3)cc2n1 . Return the value.
1

Request body: readout Activity, system Serine-protein kinase ATM (Homo sapiens, UniProt Q13315), query CC(C)NC(=O)N(C)c1cnc2ccc(-c3cnc(OCCCN4CCCCC4)cc3F)cc2n1 . Return the value.
-3

Request body: readout Activity, system Serine-protein kinase ATM (Homo sapiens, UniProt Q13315), query CC(C)NC(=O)Nc1cnc2ccc(-c3ccc(OCCCN(C)C)nc3)cc2n1 . Return the value.
-4

Request body: readout Activity, system Serine-protein kinase ATM (Homo sapiens, UniProt Q13315), query CC(C)NC(=O)N(C)c1cnc2ccc(-c3ccc(OCCN4CCCCC4)nc3)cc2n1 . Return the value.
4

Request body: readout Activity, system Serine-protein kinase ATM (Homo sapiens, UniProt Q13315), query CC(C)NC(=O)N(C)c1cnc2ccc(-c3ccc(OCCCN4CCCCC4)nc3C#N)cc2n1 . Return the value.
-4

Request body: readout Activity, system Serine-protein kinase ATM (Homo sapiens, UniProt Q13315), query CC(C)NC(=O)N(C)c1cnc2ccc(-c3ccc(OCCN4CCN(C)CC4)nc3)cc2n1 . Return the value.
22

Request body: readout Activity, system Serine-protein kinase ATM (Homo sapiens, UniProt Q13315), query CC(C)NC(=O)N(C)c1cnc2ccc(-c3ccc(OCCN4CCOCC4)nc3)cc2n1 . Return the value.
13

Request body: readout Activity, system Serine-protein kinase ATM (Homo sapiens, UniProt Q13315), query CC(C)NC(=O)N(C)c1cnc2ccc(-c3ccc(OC(C)CN(C)C)nc3)cc2n1 (stereo unspecified) . Return the value.
4

Request body: readout Activity, system Serine-protein kinase ATM (Homo sapiens, UniProt Q13315), query CC(C)NC(=O)N(C)c1cnc2ccc(-c3ccc(OCCCN4CCCC4=O)nc3)cc2n1 . Return the value.
71
